- TESTED_TARGET: human CD137 (human, UniProt Q07011 24-186)
- Sequence (Q07011 24-186 limits assumed): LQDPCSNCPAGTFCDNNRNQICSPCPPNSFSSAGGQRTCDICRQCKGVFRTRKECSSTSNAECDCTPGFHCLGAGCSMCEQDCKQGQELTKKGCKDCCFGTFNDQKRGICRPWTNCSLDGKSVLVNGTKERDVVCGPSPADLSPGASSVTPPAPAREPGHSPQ
- ASSAY_PROCEDURE: SPR Biacore T200, IgG captured on protein A, 25 C;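 further: antigens diluted in ACES running buffer at pH 7.4 were flowed over antibodies held on a CM3 chip bearing amine-coupled protein A, with buffer alone serving as blank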
VALUE_KIND: koff (s⁻¹)
Report the figure in s⁻¹ without appending any unit label.

See these solved cases before continuing.
BINDER	OBS_VALUE
dBBDu186/L108 (antibody, V domains shown, IgG format; constant regions not specified) VH: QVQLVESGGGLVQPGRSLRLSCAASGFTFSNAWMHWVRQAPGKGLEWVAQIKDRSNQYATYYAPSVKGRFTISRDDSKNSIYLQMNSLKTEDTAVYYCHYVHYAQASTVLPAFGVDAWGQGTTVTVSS VL: DIVMTQSPLSLPVTPGEPASISCRTSEELLHINRFTFLHWYQQKPGQAPRLLIYKVSNRFMGVPDRFSGSGSGTDFTLKISRVEAEDVGVYYCAQGSAVPFTFGQGTKLEIK	0.00081
dBBDu186/L100 (antibody, V domains shown, IgG format; constant regions not specified) VH: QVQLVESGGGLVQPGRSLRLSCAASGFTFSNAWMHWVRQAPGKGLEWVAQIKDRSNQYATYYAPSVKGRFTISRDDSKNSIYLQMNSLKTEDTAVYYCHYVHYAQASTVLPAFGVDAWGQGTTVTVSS VL: DIVMTQSPLSLPVTPGEPASISCSASEELVHINRYIFLHWYQQKPGQAPRLLIYKVYNRFMGVPDRFSGSGSGTDFTLKISRVEAEDVGVYYCGQGSSVPFTFGQGTKLEIK	0.000746
dBBDu167/L094 (antibody, V domains shown, IgG format; constant regions not specified; also called dBBDu_167 dBBDu.L094) VH: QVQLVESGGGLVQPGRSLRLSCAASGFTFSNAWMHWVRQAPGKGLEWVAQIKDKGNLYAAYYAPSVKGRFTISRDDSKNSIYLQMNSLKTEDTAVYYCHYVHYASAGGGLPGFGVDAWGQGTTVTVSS VL: DIVMTQSPLSLPVTPGEPASISCYASEELLHINRHIYLHWYQQKPGQAPRLLIYKVYNRFNGVPDRFSGSGSGTDFTLKISRVEAEDVGVYYCAQGSSVPFTFGQGTKLEIK	0.0102

Now turn to the next binder.
*Q* Fill in the blank: the reported koff of dBBDu186/L106 (antibody, V domains shown, IgG format; constant regions not specified) VH: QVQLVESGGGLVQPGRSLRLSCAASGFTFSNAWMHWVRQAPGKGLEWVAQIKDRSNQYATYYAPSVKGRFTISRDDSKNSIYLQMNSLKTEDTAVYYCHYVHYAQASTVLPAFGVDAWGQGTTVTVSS VL: DIVMTQSPLSLPVTPGEPASISCSTSEELLHINRFIFLHWYQQKPGQAPRLLIYKVANRFMGVPDRFSGSGSGTDFTLKISRVEAEDVGVYYCAQGSQVPFTFGQGTKLEIK is ____.
*A* 0.000447
